Tested on: HT29 colon
Procedure Details: NCI-60 one-dose screen, 48 h
Assay Conditions: 10 µM unless noted
Compounds without any hit were thinned out: in the full panel of roughly 83,000, 20% have a hit. The source made the active and inactive calls. How the source made its calls: active means growth percent below 10; inactive means the rest.
Entry note: the call must match one of Y (active), N (inactive)

Take a look at these entries with their results.
CCCSc1nc(Nc2ccc(S(N)(=O)=O)cc2)c(C#N)c(-c2cc(OC)c(OC)c(OC)c2)n1: N
COc1c(F)ccc(C(=O)Nc2ccc3nc(NC(=O)C4CCCN(S(=O)(=O)C5CC5)C4)sc3c2)c1F (centres undefined): N
C=C1CC[C@@H]2[C@]3(C)COC(c4cn(-c5ccccc5)nc4-c4ccccc4)O[C@@H]3CC[C@@]2(C)[C@@H]1C/C=C1/C(=O)OC[C@H]1O (some centres undefined): Y
COc1ccc(C(=O)/C=C/c2cccnc2)cc1S(N)(=O)=O: N
c1ccc(-c2csc(Nc3cccc(Nc4nc(-c5ccccc5)cs4)c3)n2)cc1: N

How was Cc1cccc(-c2nc(Nc3cccc(S(N)(=O)=O)c3)c3ccccc3n2)c1 classified in this test?
N

Called result for CC1=C(C(=O)c2ccccc2)C(c2ccc(-n3cncn3)cc2)n2c(nc3ccccc32)N1 (centres undefined)
N

Test call for this compound, please: Cn1cc(-c2cc(N)n3nc(-c4cn(C)c5ccccc45)cc3n2)c2cc(Br)ccc21
Y

State the result this test recorded for O=C(N/N=C/c1ccc(-c2ccc(O)cc2)s1)c1[nH]c2ccc(Br)cc2c1-c1ccccc1 .
Y

Which outcome was assigned to Cn1cc(-c2cc(N)n3nc(-c4cn(C)c5ccc(Cl)cc45)cc3n2)c2ccccc21 in this test?
N

Given C=CC(=O)Nc1ccc(C)c(Oc2ccc(Cl)cc2)c1 , state the outcome it received in this test.
N

Call for entry O=C(COc1ccc(NC(=O)Nc2ccc(Cl)c(Cl)c2)cc1)N=Nc1c(O)[nH]c2ccc([N+](=O)[O-])cc12 :
N

Any idea what this test logged for COc1cc(OC)cc(-c2cc3ccc(N(C)C)cc3c(=O)[nH]2)c1 ?
N

Kindly provide the recorded test outcome for the following compound: CCN1C(=O)N(CC)C2NNC(Sc3c(C(=O)O)c4ccccc4n(C4CCCC4)c3=O)=NC21 (centres undefined)
Y

Test call for this compound, please: CC1(c2cc3cc(Br)ccc3oc2=O)NC(=O)c2c(/C=C/C(=O)OC3CC4CCC3(C)C4(C)C)cccc2N1 (centres undefined)
N

# lookup: test call for O=C1NC(=O)/C(=C/c2ccccc2OCc2cc3ccccc3nc2Cl)S1
N

Recorded test outcome, item CC(=O)Nc1ccc(-n2cnc3ccc(-c4ccc(O)cc4)cc32)cc1
N

Which outcome did this test record for the compound CCCCCCCCc1ccc(S(=O)(=O)Nc2ccc(CC)cc2C(=O)O)cc1 ?
N

Status in this test for O=C(/C=C/c1ccc(-c2ccccc2)cc1)c1nc2ccccc2n1Cc1ccc(Br)cc1 ?
N

FYI, the data here is from PubChem BioAssay (NCI).
